System: JURKAT
PROTOCOL DETAILS: selective drug sensitivity score (sDSS, relative to normal bone marrow) (sDSS (score)); higher = more potent and effective on the cell line relative to normal bone marrow cells;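 further: ALL cell lines in 384-well plates, five doses spanning 10,000-fold, each plate scaled between vehicle and 100 µmol/L benzalkonium chloride controls, sDSS an adapted area-under-curve metric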
DETAILS: 72 h
EXPERIMENTAL READOUT: selective drug sensitivity score

Use these answered entries as a reference point.
| COMPOUND | ASSAY SYSTEM | selective drug sensitivity score |
| --- | --- | --- |
| CC1(C)CC[C@]2(NC(=O)C(C)(F)F)CC[C@]3(C)[C@H](C(=O)C=C4[C@@]5(C)C=C(C#N)C(=O)C(C)(C)[C@@H]5CC[C@]43C)[C@@H]2C1 [Omaveloxolone] (top concentration 10000 nM) | JURKAT | 0.88 |
| N#CCNC(=O)c1ccc(-c2ccnc(Nc3ccc(N4CCOCC4)cc3)n2)cc1 [Momelotinib] (top concentration 10000 nM) | JURKAT | -5.12 |
| CCCOc1ccn2c(C(C)=O)cc(-c3ccccc3S(C)(=O)=O)c2c1 [GSK2801] (top concentration 10000 nM) | JURKAT | -0.26 |
| O=C(Nc1cc(Oc2cc(F)c(NC(=O)C3(C(=O)Nc4ccc(F)cc4)CC3)cc2F)ccn1)C1CC1 [Altiratinib] (top concentration 10000 nM) | JURKAT | 0.84 |
| O=C(Nc1ccncc1)C(=O)c1cn(Cc2ccc(Cl)cc2)c2ccccc12 [Indibulin] (top concentration 10000 nM) | JURKAT | 15.1 |

Challenge: Any idea what its selective drug sensitivity score is? The compound is CCOCc1nc2c(N)nc3ccccc3c2n1CC(C)(C)O [Resiquimod] (top concentration 10000 nM)
Response given: -4.52

====

Tested on: COG-LL-402h
PROTOCOL DETAILS: selective drug sensitivity score (sDSS, relative to normal bone marrow) (sDSS (score)); higher = more potent and effective on the cell line relative to normal bone marrow cells
DETAILS: 72 h
EXPERIMENTAL READOUT: selective drug sensitivity score
Lab note: jot down the number only; don't add units.

| MOLECULE | ASSAY SYSTEM | MEASUREMENT |
| --- | --- | --- |
| CCOC(=O)C1=CCCC[C@H]1S(=O)(=O)Nc1ccc(F)cc1Cl [Resatorvid] (top concentration 10000 nM) | COG-LL-402h | 0.4 |
| Nc1nc(N)c2nc(-c3cccc(O)c3)c(-c3cccc(O)c3)nc2n1 [TG100-115] (top concentration 10000 nM) | COG-LL-402h | -0.4 |
| CCn1cc(-c2ccnc3[nH]c(-c4cccc(CN(C)C)c4)cc23)c(-c2ccc(NC(=O)N(C)C)cc2)n1 (top concentration 1000 nM) | COG-LL-402h | 17.8 |
| CC(C)C[C@H](NC(=O)CNC(=O)c1cc(Cl)ccc1Cl)B(O)O [Ixazomib] (top concentration 1000 nM) | COG-LL-402h | 3.46 |

Challenge: Any idea what its selective drug sensitivity score is? The molecule is CN(CC(=O)N(Cc1ccc(C2CCCCC2)cc1)c1ccc(C(=O)O)cc1)S(=O)(=O)c1c(F)c(F)c(F)c(F)c1F [SH-4-54] (top concentration 25000 nM)
Response given: -2.14

Challenge: Any idea what its selective drug sensitivity score is? The molecule is C#Cc1cccc(Nc2ncnc3cc4c(cc23)OCCOCCOCCO4)c1 [Icotinib] (top concentration 10000 nM)
Response given: 0

Challenge: Any idea what its selective drug sensitivity score is? The molecule is Nc1nc2cc(-c3ccc4ncc(C(=O)N5CCOCC5)n4c3)ccc2o1 [Serabelisib] (top concentration 10000 nM)
Response given: -0.14

Challenge: Any idea what its selective drug sensitivity score is? The molecule is CC(C)(O)CC(=O)NCCn1ccc2ncnc(Nc3ccc(Oc4cccc(C(F)(F)F)c4)c(Cl)c3)c21 [TAK-285] (top concentration 2500 nM)
Response given: 0

Challenge: Any idea what its selective drug sensitivity score is? The molecule is COc1cccc2c1C(=O)c1c(O)c3c(c(O)c1C2=O)C[C@@](O)(C(=O)CO)C[C@@H]3O[C@H]1C[C@H](N)[C@H](O)[C@H](C)O1 [Doxorubicin] (top concentration 1000 nM)
Response given: 13.1

Challenge: Any idea what its selective drug sensitivity score is? The molecule is C[C@]12CC[C@@H]3c4ccc(O)cc4C[C@@H](CCCCCCCCC[S+]([O-])CCCC(F)(F)C(F)(F)F)[C@H]3[C@@H]1CC[C@@H]2O (stereo partly drawn) [Fulvestrant] (top concentration 1000 nM)
Response given: 0

Challenge: Any idea what its selective drug sensitivity score is? The molecule is Cc1cc(-c2ncc(CC(=O)Nc3ccc(-c4cnccn4)cn3)cc2C)ccn1 [NVP-LGK974] (top concentration 10000 nM)
Response given: -0.1

Challenge: Any idea what its selective drug sensitivity score is? The molecule is CN[C@@H](C)C(=O)N[C@H]1CN(C(=O)CC(C)C)CC[C@H]2CC[C@@H](C(=O)NC(c3ccccc3)c3ccccc3)N2C1=O [AT-406] (top concentration 10000 nM)
Response given: -0.86

Challenge: Any idea what its selective drug sensitivity score is? The molecule is Cc1cnc(NC(=O)Nc2cc(Br)c(C)cc2OC[C@@H]2CNCCO2)cn1 [Rabusertib] (top concentration 1000 nM)
Response given: 1.36

Challenge: Any idea what its selective drug sensitivity score is? The molecule is NC(=O)c1cccc(-c2cccc(OC(=O)NC3CCCCC3)c2)c1 [URB597] (top concentration 1000 nM)
Response given: -0.46

Challenge: Any idea what its selective drug sensitivity score is? The molecule is CO[C@H]1C[C@@H]2CC[C@@H](C)[C@@](O)(O2)C(=O)C(=O)N2CCCC[C@H]2C(=O)O[C@H]([C@H](C)C[C@@H]2CC[C@@H](OC(=O)C(C)(CO)CO)[C@H](OC)C2)CC(=O)[C@H](C)/C=C(\C)[C@@H](O)[C@@H](OC)C(=O)[C@H](C)C[C@H](C)/C=C/C=C/C=C/1C [Temsirolimus] (top concentration 100 nM)
Response given: 4.66

Challenge: Any idea what its selective drug sensitivity score is? The molecule is Cc1ccc(C(=O)Nc2cccc(C(F)(F)F)c2)cc1Nc1nc(-c2cccnc2)nc2c1cnn2C [NVP-BHG712] (top concentration 10000 nM)
Response given: -2.32

Challenge: Any idea what its selective drug sensitivity score is? The molecule is C[C@@H](Oc1cc(-c2cnn(C3CCNCC3)c2)cnc1N)c1c(Cl)ccc(F)c1Cl [Crizotinib] (top concentration 1000 nM)
Response given: -0.54

Challenge: Any idea what its selective drug sensitivity score is? The molecule is CC(C)(C#N)c1cc(Cn2cncn2)cc(C(C)(C)C#N)c1 [Anastrozole] (top concentration 10000 nM)
Response given: 0

Challenge: Any idea what its selective drug sensitivity score is? The molecule is Cc1nc(-c2cn3c(n2)-c2ccc(-c4cnn(C(C)(C)C(N)=O)c4)cc2OCC3)n(C(C)C)n1 [Taselisib] (top concentration 1000 nM)
Response given: 10.9

Challenge: Any idea what its selective drug sensitivity score is? The molecule is CCN1CCN(Cc2ccc(Nc3ncc(F)c(-c4cc(F)c5nc(C)n(C(C)C)c5c4)n3)nc2)CC1 [Abemaciclib] (top concentration 2500 nM)
Response given: 1.74

Challenge: Any idea what its selective drug sensitivity score is? The molecule is CNC(=O)c1nn(C)c2c1C(C)(C)Cc1cnc(Nc3ccc(N4CCN(C)CC4)cc3)nc1-2 [Milciclib] (top concentration 10000 nM)
Response given: 12

Challenge: Any idea what its selective drug sensitivity score is? The molecule is Cc1ncc(-c2ccnc(Nc3ccc(S(C)(=O)=O)cc3)n2)n1C(C)C [AZD-5438] (top concentration 10000 nM)
Response given: -0.46

Challenge: Any idea what its selective drug sensitivity score is? The molecule is CC(C)Oc1ccc(C(=O)N[C@H](CNC(=O)CN(C)C)Cc2ccc(-c3cn4cccc([C@H](C)O)c4n3)cc2)cc1Cl (top concentration 10000 nM)
Response given: 10.6
